Tested on: Caco-2 cell monolayer
Experiment: Caco-2 monolayer transport (bioavailability) study, AB and BA directions
Format: in vitro ADME, Homo sapiens
Details: BA experiment, acceptor side, S1 (15 mg/mL GSE), 75 min
Marks after values point to notes of the source that are not given here.
READOUT: Apical Side 75 min

Notebook entry, Caco-2 cell monolayer assay: Apical Side 75 min of O=c1c(O[C@@H]2O[C@H](CO)[C@@H](O)[C@H](O)[C@H]2O)c(-c2ccc(O)cc2)oc2cc(O)cc(O)c12 [K3G, kaempferol-3-glucoside] = ?
6.1 ± 0.3 ^b mg/L

Notebook entry, Caco-2 cell monolayer assay: Apical Side 75 min of O=C(/C=C/c1ccc(O)c(O)c1)O[C@@H](C(=O)O)[C@@H](O)C(=O)O [CA, caftaric acid] = ?
0.08 ± 0.01 ^b mg/L

Notebook entry, Caco-2 cell monolayer assay: Apical Side 75 min of COc1cc(-c2[o+]c3cc(O)cc(O)c3cc2O[C@@H]2O[C@H](CO)[C@@H](O)[C@H](O)[C@H]2O)cc(OC)c1O [M3G, malvidin-3-O-glucoside] = ?
0.19 ± 0.02 ^a,b mg/L

Notebook entry, Caco-2 cell monolayer assay: Apical Side 75 min of O=C(O)c1cc(O)c(O)c(O)c1 [GA, gallic acid] = ?
8.1 ± 0.3 ^a,b mg/L

Notebook entry, Caco-2 cell monolayer assay: Apical Side 75 min of O=c1c(O[C@@H]2O[C@H](CO)[C@@H](O)[C@H](O)[C@H]2O)c(-c2ccc(O)c(O)c2)oc2cc(O)cc(O)c12 [Q3G, quercetin-3-glucoside] = ?
0.009 ± 0.001 ^b mg/L

###

System: Caco-2 cell monolayer
Assay: Caco-2 monolayer transport (bioavailability) study, AB and BA directions
Type: in vitro ADME, Homo sapiens
Settings: AB experiment, donor side, S1 (15 mg/mL GSE), 115 min
Marks after values point to notes of the source that are not given here.
READOUT: Apical Side 115 min

Look over these answered cases.
Look at this compound and give its reported Apical Side 115 min. OC[C@H]1O[C@@H](Oc2cc3c(O)cc(O)cc3[o+]c2-c2cc(O)c(O)c(O)c2)[C@H](O)[C@@H](O)[C@@H]1O [D3G, delphinidin-3-O-glucoside]
1.6 ± 0.1 ^c mg/L

Look at this compound and give its reported Apical Side 115 min. COc1cc(C(=O)O)cc(OC)c1O
0.32 ± 0.03 ^d mg/L

Look at this compound and give its reported Apical Side 115 min. COc1cc(-c2[o+]c3cc(O)cc(O)c3cc2O[C@@H]2O[C@H](CO)[C@@H](O)[C@H](O)[C@H]2O)cc(OC)c1O [M3G, malvidin-3-O-glucoside]
2.26 ± 0.06 ^d mg/L

Others:
Look at this compound and give its reported Apical Side 115 min. O=C(O)c1cc(O)c(O)c(O)c1
3.4 ± 0.4 ^c,d mg/L

###

Test system: Caco-2 cell monolayer
Test: Caco-2 monolayer transport (bioavailability) study, AB and BA directions
Assay type: in vitro ADME, Homo sapiens
Settings: BA experiment, donor side, S1 (15 mg/mL GSE), 180 min
Marks after values point to notes of the source that are not given here.
READOUT: Basolateral Side 180 min

Look at this compound and give its reported Basolateral Side 180 min. OC[C@H]1O[C@@H](Oc2cc3c(O)cc(O)cc3[o+]c2-c2cc(O)c(O)c(O)c2)[C@H](O)[C@@H](O)[C@@H]1O [D3G, delphinidin-3-O-glucoside]
2.3 ± 0.2 ^c mg/L

Look at this compound and give its reported Basolateral Side 180 min. COc1cc(-c2[o+]c3cc(O)cc(O)c3cc2O[C@@H]2O[C@H](CO)[C@@H](O)[C@H](O)[C@H]2O)cc(O)c1O [Pet3G, petunidin-3-O-glucoside]
3.49 ± 0.08 ^d mg/L

Look at this compound and give its reported Basolateral Side 180 min. O=c1c(O[C@@H]2O[C@H](CO)[C@@H](O)[C@H](O)[C@H]2O)c(-c2ccc(O)c(O)c2)oc2cc(O)cc(O)c12 [Q3G, quercetin-3-glucoside]
0.15 ± 0.01 ^c mg/L

Please turn your attention to the following entry.
Look at this compound and give its reported Basolateral Side 180 min. O=C(O)c1cc(O)c(O)c(O)c1 [GA, gallic acid]
5.5 ± 0.2 ^c mg/L

###

Test system: Caco-2 cell monolayer
Assay: Caco-2 monolayer transport (bioavailability) study, AB and BA directions
Type: in vitro ADME, Homo sapiens
Settings: AB experiment, acceptor side, S2 (22 mg/mL GSE), 180 min
Method: A reversed phase C18 column (Luna 5 μm C18(2) 100 Å, LC Column 250 × 4.6 mm, Phenomenex) was used to separate the polyphenols at a flow rate of 0.7 mL/min with an injection volume of 60 µL. […] Every polyphenol was quantified using the corresponding reference standard calibration curve. Each of the quantified phenolic compound concentration was expressed as mg/mL […]
Marks after values point to notes of the source that are not given here.
READOUT: Basolateral Side 180 min

Look over these answered cases.
Look at this molecule and give its reported Basolateral Side 180 min. O=C(O)c1cc(O)c(O)c(O)c1 [GA, gallic acid]
9.6 ± 0.9 ^b mg/L

Look at this molecule and give its reported Basolateral Side 180 min. O=C(/C=C/c1ccc(O)c(O)c1)O[C@@H](C(=O)O)[C@@H](O)C(=O)O [CA, caftaric acid]
0.08 ± 0.01 ^b mg/L

Look at this molecule and give its reported Basolateral Side 180 min. O=c1c(O[C@@H]2O[C@H](CO)[C@@H](O)[C@H](O)[C@H]2O)c(-c2ccc(O)cc2)oc2cc(O)cc(O)c12 [K3G, kaempferol-3-glucoside]
7.6 ± 0.2 ^c mg/L

Please turn your attention to the following entry.
Look at this molecule and give its reported Basolateral Side 180 min. COc1cc(-c2[o+]c3cc(O)cc(O)c3cc2O[C@@H]2O[C@H](CO)[C@@H](O)[C@H](O)[C@H]2O)cc(OC)c1O [M3G, malvidin-3-O-glucoside]
0.15 ± 0.01 ^c mg/L

###

System: Caco-2 cell monolayer
Experiment: Caco-2 monolayer transport (bioavailability) study, AB and BA directions
Format: in vitro ADME, Homo sapiens
Conditions: BA experiment, S2 (22 mg/mL GSE), after 180 min
READOUT: TE (%) transport efficiency

Look over these answered cases.
Look at this molecule and give its reported TE (%) transport efficiency. COc1cc(-c2[o+]c3cc(O)cc(O)c3cc2O[C@@H]2O[C@H](CO)[C@@H](O)[C@H](O)[C@H]2O)cc(OC)c1O [M3G, malvidin-3-O-glucoside]
1.73

Look at this molecule and give its reported TE (%) transport efficiency. O=c1c(O[C@@H]2O[C@H](CO)[C@@H](O)[C@H](O)[C@H]2O)c(-c2ccc(O)cc2)oc2cc(O)cc(O)c12 [K3G, kaempferol-3-glucoside]
109.0

[A] O=C(/C=C/c1ccc(O)c(O)c1)O[C@@H](C(=O)O)[C@@H](O)C(=O)O
[B] O=c1c(O[C@@H]2O[C@H](CO)[C@@H](O)[C@H](O)[C@H]2O)c(-c2ccc(O)c(O)c2)oc2cc(O)cc(O)c12 [Q3G, quercetin-3-glucoside]
Hi there, can you help? I need to know whether A or B has lower measured TE (%) transport efficiency. # respond with the chosen item's label
B

###

Each record here notes measured Basolateral Side 180 min.
System: Caco-2 cell monolayer
Assay: Caco-2 monolayer transport (bioavailability) study, AB and BA directions
Assay type: in vitro ADME, Homo sapiens
Conditions: BA experiment, donor side, S2 (22 mg/mL GSE), 180 min
Marks after values point to notes of the source that are not given here.

Look at this compound and give its reported Basolateral Side 180 min. O=C(/C=C/c1ccc(O)c(O)c1)O[C@@H](C(=O)O)[C@@H](O)C(=O)O [CA, caftaric acid]
1.08 ± 0.08 ^c mg/L

Look at this compound and give its reported Basolateral Side 180 min. OC[C@H]1O[C@@H](Oc2cc3c(O)cc(O)cc3[o+]c2-c2cc(O)c(O)c(O)c2)[C@H](O)[C@@H](O)[C@@H]1O [D3G, delphinidin-3-O-glucoside]
3.4 ± 0.2 ^a mg/L

Look at this compound and give its reported Basolateral Side 180 min. O=c1c(OC2O[C@H](CO)[C@H](O)[C@H](O)[C@H]2O)c(-c2ccc(O)cc2)oc2cc(O)cc(O)c12 (some centres unmarked) [K3Gal, kaempferol-3-galactoside]
0.64 ± 0.01 ^c mg/L

Look at this compound and give its reported Basolateral Side 180 min. O=C(O)c1cc(O)c(O)c(O)c1 [GA, gallic acid]
4.7 ± 0.3 ^d mg/L

Look at this compound and give its reported Basolateral Side 180 min. O=c1c(O[C@@H]2O[C@H](CO)[C@@H](O)[C@H](O)[C@H]2O)c(-c2ccc(O)c(O)c2)oc2cc(O)cc(O)c12 [Q3G, quercetin-3-glucoside]
0.32 ± 0.03 ^c mg/L

Look at this compound and give its reported Basolateral Side 180 min. COc1cc(-c2[o+]c3cc(O)cc(O)c3cc2O[C@@H]2O[C@H](CO)[C@@H](O)[C@H](O)[C@H]2O)cc(OC)c1O [M3G, malvidin-3-O-glucoside]
13.7 ± 0.2 ^c mg/L

Others:
Look at this compound and give its reported Basolateral Side 180 min. COc1cc(-c2[o+]c3cc(O)cc(O)c3cc2O[C@@H]2O[C@H](CO)[C@@H](O)[C@H](O)[C@H]2O)cc(O)c1O [Pet3G, petunidin-3-O-glucoside]
2.7 ± 0.2 ^a mg/L

Look at this compound and give its reported Basolateral Side 180 min. O=c1c(O[C@@H]2O[C@H](CO)[C@@H](O)[C@H](O)[C@H]2O)c(-c2ccc(O)cc2)oc2cc(O)cc(O)c12 [K3G, kaempferol-3-glucoside]
8.5 ± 0.2 ^c mg/L
